Value source: paper PMC4721545

TARGET_OR_SYSTEM: ROCK II (Homo sapiens)
Construct: purchased Carna
Sequence (O75116 whole entry): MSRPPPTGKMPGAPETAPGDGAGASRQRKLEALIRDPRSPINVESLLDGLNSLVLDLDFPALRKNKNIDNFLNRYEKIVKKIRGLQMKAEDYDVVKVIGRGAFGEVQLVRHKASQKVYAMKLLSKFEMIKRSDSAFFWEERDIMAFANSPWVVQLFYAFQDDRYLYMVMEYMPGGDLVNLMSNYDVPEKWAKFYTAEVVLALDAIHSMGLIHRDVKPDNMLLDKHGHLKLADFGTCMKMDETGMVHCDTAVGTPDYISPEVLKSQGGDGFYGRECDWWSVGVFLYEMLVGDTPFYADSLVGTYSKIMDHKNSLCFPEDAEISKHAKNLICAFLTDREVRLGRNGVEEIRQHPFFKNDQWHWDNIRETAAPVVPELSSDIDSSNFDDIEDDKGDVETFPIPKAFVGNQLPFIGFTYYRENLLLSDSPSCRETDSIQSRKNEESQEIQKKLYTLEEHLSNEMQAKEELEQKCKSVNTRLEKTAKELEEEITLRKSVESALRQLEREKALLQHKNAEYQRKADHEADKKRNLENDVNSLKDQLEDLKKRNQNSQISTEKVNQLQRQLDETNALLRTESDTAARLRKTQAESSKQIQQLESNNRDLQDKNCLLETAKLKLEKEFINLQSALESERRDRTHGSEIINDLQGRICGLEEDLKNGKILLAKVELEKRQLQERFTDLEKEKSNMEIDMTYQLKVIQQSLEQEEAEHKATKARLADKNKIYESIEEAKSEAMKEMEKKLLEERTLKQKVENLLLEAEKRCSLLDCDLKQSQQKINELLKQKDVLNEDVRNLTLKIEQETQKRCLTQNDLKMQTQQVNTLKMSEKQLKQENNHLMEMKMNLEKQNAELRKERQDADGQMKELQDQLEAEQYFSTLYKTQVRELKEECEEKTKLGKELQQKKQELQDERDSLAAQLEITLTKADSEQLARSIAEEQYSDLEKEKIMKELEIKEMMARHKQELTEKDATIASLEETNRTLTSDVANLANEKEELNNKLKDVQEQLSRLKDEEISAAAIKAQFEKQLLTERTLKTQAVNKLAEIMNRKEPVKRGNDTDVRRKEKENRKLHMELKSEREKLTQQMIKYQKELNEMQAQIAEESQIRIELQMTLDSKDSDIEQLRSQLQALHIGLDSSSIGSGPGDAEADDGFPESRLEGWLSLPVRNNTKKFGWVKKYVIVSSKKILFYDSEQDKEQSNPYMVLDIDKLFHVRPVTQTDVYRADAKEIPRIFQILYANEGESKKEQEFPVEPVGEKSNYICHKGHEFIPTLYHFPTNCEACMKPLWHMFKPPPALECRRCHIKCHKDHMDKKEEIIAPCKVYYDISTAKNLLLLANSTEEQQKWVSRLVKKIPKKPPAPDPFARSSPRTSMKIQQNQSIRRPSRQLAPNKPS
ASSAY_METHOD_TEXT: ROCK inhibition by mobility shift assay, ROCK II
Format: biochemical
EXPERIMENTAL_CONDITIONS: ATP con. 5.3 μM
MEASURE_NAME: IC50 (µM)
The reply should contain only the number, in µM.

Field IC50 (system: ROCK II (Homo sapiens)) for entry "O=S(=O)(c1cccc2cnccc12)N1CCC[C@H]1CCl" = 0.711

* * *

TARGET_OR_SYSTEM: UniProt:Q13464
Sequence (Q13464 whole entry): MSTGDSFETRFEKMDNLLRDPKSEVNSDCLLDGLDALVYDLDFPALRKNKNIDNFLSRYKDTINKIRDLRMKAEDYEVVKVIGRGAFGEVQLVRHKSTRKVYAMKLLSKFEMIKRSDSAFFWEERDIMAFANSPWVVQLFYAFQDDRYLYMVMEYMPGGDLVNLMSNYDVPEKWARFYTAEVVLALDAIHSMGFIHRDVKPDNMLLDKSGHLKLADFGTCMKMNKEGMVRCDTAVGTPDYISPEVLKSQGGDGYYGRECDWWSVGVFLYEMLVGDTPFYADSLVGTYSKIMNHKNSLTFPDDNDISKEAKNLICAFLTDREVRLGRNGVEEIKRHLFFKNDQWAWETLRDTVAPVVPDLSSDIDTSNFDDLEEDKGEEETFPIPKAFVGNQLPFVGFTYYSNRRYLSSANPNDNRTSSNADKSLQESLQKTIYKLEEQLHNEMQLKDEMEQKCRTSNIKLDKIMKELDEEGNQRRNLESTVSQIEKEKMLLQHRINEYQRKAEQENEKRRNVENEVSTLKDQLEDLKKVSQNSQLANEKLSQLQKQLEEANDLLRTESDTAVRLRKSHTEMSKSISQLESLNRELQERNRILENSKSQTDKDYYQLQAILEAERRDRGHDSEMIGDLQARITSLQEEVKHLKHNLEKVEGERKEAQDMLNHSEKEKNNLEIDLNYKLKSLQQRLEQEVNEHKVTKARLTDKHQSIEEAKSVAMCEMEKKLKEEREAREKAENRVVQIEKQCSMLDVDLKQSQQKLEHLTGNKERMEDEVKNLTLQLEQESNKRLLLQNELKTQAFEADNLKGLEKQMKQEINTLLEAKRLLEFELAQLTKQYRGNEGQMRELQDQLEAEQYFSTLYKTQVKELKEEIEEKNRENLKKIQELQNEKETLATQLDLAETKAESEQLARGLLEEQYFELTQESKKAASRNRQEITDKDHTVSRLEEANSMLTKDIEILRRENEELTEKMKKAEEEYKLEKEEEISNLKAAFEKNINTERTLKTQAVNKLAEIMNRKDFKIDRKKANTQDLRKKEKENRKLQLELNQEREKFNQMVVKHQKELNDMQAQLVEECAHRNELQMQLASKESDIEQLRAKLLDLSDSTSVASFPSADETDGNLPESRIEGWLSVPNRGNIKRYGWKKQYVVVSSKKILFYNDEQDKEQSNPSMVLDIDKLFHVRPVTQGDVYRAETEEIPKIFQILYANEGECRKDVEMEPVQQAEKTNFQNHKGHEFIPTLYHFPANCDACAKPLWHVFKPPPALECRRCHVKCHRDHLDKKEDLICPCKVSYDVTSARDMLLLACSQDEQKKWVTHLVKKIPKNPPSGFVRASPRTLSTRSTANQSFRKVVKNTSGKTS
MEASURE_NAME: IC50
Kindly report the value followed by its unit.

For "O=S(=O)(c1cccc2cnccc12)N1CCC[C@H]1CCl" the compound record lists IC50 as 1140 nM
